This collection of values is drawn from ChEMBL document CHEMBL1933063.

Target: Broad substrate specificity ATP-binding cassette transporter ABCG2 (Homo sapiens, UniProt Q9UNQ0)
Sequence (Q9UNQ0 whole entry): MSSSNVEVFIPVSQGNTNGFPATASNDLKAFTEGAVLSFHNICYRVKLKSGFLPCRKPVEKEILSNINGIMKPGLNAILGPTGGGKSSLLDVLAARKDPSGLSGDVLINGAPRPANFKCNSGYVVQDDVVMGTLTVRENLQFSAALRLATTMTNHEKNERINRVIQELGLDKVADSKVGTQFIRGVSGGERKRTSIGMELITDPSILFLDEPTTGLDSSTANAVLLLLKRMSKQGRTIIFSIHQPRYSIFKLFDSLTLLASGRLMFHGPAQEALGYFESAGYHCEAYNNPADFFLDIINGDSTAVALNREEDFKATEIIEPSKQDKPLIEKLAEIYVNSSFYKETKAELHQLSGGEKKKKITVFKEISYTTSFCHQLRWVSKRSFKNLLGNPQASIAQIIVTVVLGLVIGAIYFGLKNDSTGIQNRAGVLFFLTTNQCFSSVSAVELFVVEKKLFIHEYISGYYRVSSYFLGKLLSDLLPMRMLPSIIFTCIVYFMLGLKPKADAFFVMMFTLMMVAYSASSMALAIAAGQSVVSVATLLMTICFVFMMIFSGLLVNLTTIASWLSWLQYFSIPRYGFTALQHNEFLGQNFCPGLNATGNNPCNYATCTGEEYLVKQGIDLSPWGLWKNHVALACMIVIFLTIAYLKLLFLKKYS
Test: Inhibition of BCRP in human MCF7/MX cells assessed as Hoechst 33342 accumulation preincubated for 30 mins by Fluorometry
Assay type: cell-based
Conditions: read-out: IC50
pIC50: −log10 of the molar value.
metric name: pIC50

COc1ccc(C(=O)/C=C/c2ccc(Cl)cc2)c(OC)c1 5.51
COc1cccc(/C=C/C(=O)c2ccc(O)cc2O)c1 5.55

P: COc1ccc(C(=O)/C=C/c2ccc(Cl)cc2)c(O)c1
Q: COc1ccc(/C=C/C(=O)c2ccc(O)cc2O)cc1OC
R: COc1ccc(C(=O)/C=C/c2ccc(OC)c(OC)c2)c(O)c1
S: COc1cc(O)c(C(=O)/C=C/c2ccccc2Cl)c(OC)c1
T: O=C(/C=C/c1ccccc1)c1ccc2ccccc2c1O
Arrange the 5 entries by pIC50 so the values rise. // list labels; follow requested order T, P, S, R, Q

* * *

Molecular target: Broad substrate specificity ATP-binding cassette transporter ABCG2 (Homo sapiens, UniProt Q9UNQ0)
Experiment: Inhibition of human BCRP expressed in MDCK2 cells assessed as Hoechst 33342 accumulation preincubated for 30 mins by fluorimetry
Type: cell-based, MDCK-II
Details: read-out: IC50
pIC50: −log10 of the molar value.
metric name: pIC50

Take a look at these entries with their results.
O=C(/C=C/c1ccccc1Cl)c1c(O)ccc2ccccc12 5.25
COc1ccc(C(=O)/C=C/c2ccc(OC)c(OC)c2)c(OC)c1 5.99
O=C(/C=C/c1ccccc1)c1ccc2ccccc2c1O 5.03
COc1ccc(/C=C/C(=O)c2ccc(OC)c(OC)c2)cc1 5.94

1: COc1ccc(/C=C/C(=O)c2c(O)cc(OC)cc2OC)cc1
2: O=C(/C=C/c1ccc(Cl)c(Cl)c1)c1ccc2ccccc2c1O
3: COc1ccc(/C=C/C(=O)c2ccc(O)cc2O)cc1OC
Arrange the 3 entries by pIC50 so the values rise. // list labels; follow requested order 2, 1, 3
(2: 4.65, 1: 5.52, 3: 6.07)
